Measured EC50 of individual entries
Assay comment: NIH3T3 cell viability loss – ATP luminescence, mouse fibroblasts, counter-screen, dose response (AID 2010);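 further: cells exposed to compound for about 90 hours before reading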
Format: functional, cell-based

Record excerpt, results attached:
C/C(N)=C(/C#N)C(=O)CSc1cc(C)c2cc(C)cc(C)c2n1 ... > 60 µM (not active)
O=C(OC(c1ccccc1)c1nccc2ccccc12)c1cc([N+](=O)[O-])cc([N+](=O)[O-])c1 (stereo not drawn) ... > 60 µM (not active)

Next:
Q: Field request: EC50 | item: "CC(C)CCc1noc(CN(C)CC2CCN(Cc3ccccc3)CC2)n1"
Result: > 60 µM (not active)

----------
Assay target: Ubiquitin-conjugating enzyme E2 N (Homo sapiens);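 further: Dose-response confirmation in a TR-FRET assay detecting UBC13-driven polyubiquitin chain formation, inhibition measured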
Sequence (P61088 whole entry): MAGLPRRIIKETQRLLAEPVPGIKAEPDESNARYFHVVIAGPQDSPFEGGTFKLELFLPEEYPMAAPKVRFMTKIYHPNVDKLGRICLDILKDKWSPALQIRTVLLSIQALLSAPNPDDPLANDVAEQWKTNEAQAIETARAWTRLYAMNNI
Assay type: functional
The source made the active and inactive calls.
Entry note: the call must match one of t for active, f for inactive

Sample answers from the record:
C=CCn1c(SCC(=O)N(CC)C2CCS(=O)(=O)C2)nnc1-c1ccccc1 (stereo unspecified) ... f
Cc1c(CN2CCC(CO)(CCOc3ccccc3)CC2)[nH]c2ccc(Cl)cc12 ... f
CCN(CC)CCC(c1cc(OC)c(OC)c(OC)c1)c1c(OC)cc(OC)c2c(-c3ccccc3)cc(=O)oc12 (stereo unspecified) ... f
O=C(CCCCCN1C(=O)c2cccc3cccc(c23)C1=O)NCc1ccco1 ... f
CCC(OCC(O)CN1CCN(CCN2C(=O)c3cccc4cccc(c34)C2=O)CC1)c1ccccc1 (stereo unspecified) ... t
COc1ccc(Cn2c(SCC(=O)NCc3ccco3)nc3ccsc3c2=O)cc1 ... t

Q: # fetch the recorded call for "COc1ccccc1C(=O)Nc1c2c(nn1-c1cccc(C)c1C)CS(=O)(=O)C2" here
Result: f

Q: Now consider "NC1=NC[C@H](c2ccccc2)N1CCc1cc(C(F)(F)F)cc(C(F)(F)F)c1" and answer again.
Result: f

Q: Now consider "Cc1ccccc1C(=O)N1CCN(c2ccc(NC(=S)NC(=O)c3cccs3)cc2)CC1" and answer again.
Result: t

Q: Now consider "FC(F)(F)c1cc(CCN2CCNC[C@H]2Cc2cccc3ccccc23)cc(C(F)(F)F)c1" and answer again.
Result: t

Q: Now consider "CCC[C@@H](CN1CCC[C@H]1CN1C(N)=NC[C@H]1CC(C)C)N1C[C@@H](Cc2ccccc2)N(CCc2ccc(Cl)c(Cl)c2)C1=N" and answer again.
Result: t
